B1: TPR t1 (parent)
chain: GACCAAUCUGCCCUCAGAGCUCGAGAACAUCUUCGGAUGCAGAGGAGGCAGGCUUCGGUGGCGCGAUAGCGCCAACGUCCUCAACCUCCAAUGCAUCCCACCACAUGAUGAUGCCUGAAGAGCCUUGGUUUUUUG

# Variants of: B1
# protocolDetails: polymerase ribozyme fitness, log enrichment relative to wild type (log ratio); higher = more active; in vitro selection for triplet polymerase activity
assayEndpoint: polymerase ribozyme fitness (log ratio)
Answer using only a numeral; do not append any unit.

What the record says about G48U C79G : polymerase ribozyme fitness (log ratio) is -3.52

What the record says about C4G C8G C11A U14G G69C C124U : polymerase ribozyme fitness (log ratio) is -2.77

What the record says about G57A C82U A105G G120U : polymerase ribozyme fitness (log ratio) is -4.95

What the record says about G45A U59A C64U G128U : polymerase ribozyme fitness (log ratio) is -2.82

What the record says about A43U C102A : polymerase ribozyme fitness (log ratio) is -4.93

What the record says about C22A G120U : polymerase ribozyme fitness (log ratio) is -4.24

What the record says about U32C U87A : polymerase ribozyme fitness (log ratio) is -0.0352

What the record says about C8G C53U C89A : polymerase ribozyme fitness (log ratio) is -1.28

What the record says about C40U A90G C102G : polymerase ribozyme fitness (log ratio) is -4.16

What the record says about U9G C70A G71A G127C : polymerase ribozyme fitness (log ratio) is -4.46

What the record says about C56G G63C C114G : polymerase ribozyme fitness (log ratio) is -5.3

What the record says about A24G A119G A121U : polymerase ribozyme fitness (log ratio) is 1.12

What the record says about C99A G127C : polymerase ribozyme fitness (log ratio) is -5.7

What the record says about C11A C40U G69U A83G G117U G127C U133G : polymerase ribozyme fitness (log ratio) is -4.24

What the record says about C12A A84U A95C G135C : polymerase ribozyme fitness (log ratio) is -1.09

What the record says about G10A A37U C72A G77C G113A C114U U116G G128A : polymerase ribozyme fitness (log ratio) is -7.17

What the record says about C20U G77U : polymerase ribozyme fitness (log ratio) is -1.15

What the record says about C72G U132A : polymerase ribozyme fitness (log ratio) is -0.151

What the record says about C72U A121C U134G : polymerase ribozyme fitness (log ratio) is 1.71

What the record says about G61C A74C C85U : polymerase ribozyme fitness (log ratio) is -5.35

What the record says about U21G A37C G44U : polymerase ribozyme fitness (log ratio) is -3.59

What the record says about U21C G113C : polymerase ribozyme fitness (log ratio) is -1.14

What the record says about C22G C56U A105U U112C : polymerase ribozyme fitness (log ratio) is -2.05
